System: OVCAR-8
Assay: NCI tumour cell line growth inhibition, 48 h
Calls of active or inactive are those of the source. Rule as the data show it: active = GI50 up to about 1.1 µM and inactive = higher.
Select the correct class. Options are 1 (active), -1 (inactive) and nothing else.

NN(CC(=O)O)CC(=O)O :: -1

# evaluate next
Request: I'd appreciate the recorded outcome for COP12(OC)NC(=O)OC1(C(F)(F)F)c1ccccc1O2 (configuration not stated) from this test.
Response: -1

* * *

Test system: K562
Experiment: NCI tumour cell line growth inhibition, 48 h
Calls of active or inactive are those of the source. No stated cut-off is given here; in the data, active = GI50 up to about 1.1 µM and inactive = higher.
EXPERIMENTAL READOUT: GI50

Solved entries (count: 5):
CC(C)c1ccc2nc3ccc(C(=O)NCCN(C)C)cn3c(=O)c2c1 :: 2.57 µM (inactive)
CCN1C(=O)C(=C/C=C/c2ccc(N(CC)CC)cc2)C(=O)N(CC)C1=S :: 83.9 µM (inactive)
Brc1ccc2c(c1)C1C(CO2)C(c2ccccc2)=NN1c1ccccc1 (stereo not given) :: 78.9 µM (inactive)
CC(C)(C)OC(=O)CC(NC(=O)OC(C)(C)C)C(=O)Oc1ccc([N+](=O)[O-])cc1 (stereo not given) :: > 100 µM (inactive)
CCOC(=O)c1ccc(-n2c(SCC)nc3sc(C)c(C)c3c2=O)cc1 :: > 100 µM (inactive)

Now look at this entry.
Request: // fetch K562 GI50 for COc1cc(/C=C2\N=C(c3ccccc3)N(/N=C/c3cc4cc(C)ccc4nc3Cl)C2=O)ccc1O
Response: 45.8 µM (inactive)

Source: ChEMBL document CHEMBL1201862
